TARGET_SYSTEM: GSK3B (Homo sapiens)
EXPERIMENTAL_DETAILS: In vitro enzymatic activity assay, GSK3β
Format: biochemical
Parameters: Full length human GSK3α or GSK3B expressed as N-terminal GST fusion proteins; GST (N); purchased Carna Biosciences (Japan); host or cells: baculovirus host
MEASUREMENT_PARAMETERS: 1.0 mM ATP, 1.0 μM peptide substrate, 120 min, 25° C, read-out: Enzyme GSK3β (IC50)
The label is rule met for IC50 below 0.3 µM and rule not met for IC50 equal to or exceeding 0.3 µM.

Consider the worked cases shown below.
COMPOUND: COc1cc(Cl)c(-n2cnc(N)c(C(=O)Nc3cncc([C@@H](N)C(F)F)c3)c2=O)c(Cl)c1 (single isomer, unassigned) [Example 204]
CAT: rule not met
//
COMPOUND: COCc1cc(C)c(-n2cnc(N)c(C(=O)Nc3cncc(C4CNC(=O)CN4)c3)c2=O)c(C)c1 (single isomer, unassigned) [Example 160]
CAT: rule not met
//
COMPOUND: CNCCc1c(NC(=O)c2c(N)ncn(-c3c(C)cccc3Cl)c2=O)cccc1OC [Example 164]
CAT: rule not met
//
COMPOUND: Cc1cc([C@@H](C)F)cc(C)c1-n1cnc(N)c(C(=O)Nc2cncc([C@H]3CCCCN3)c2)c1=O (single isomer, unassigned) [Example 185]
CAT: rule met
//
COMPOUND: C[C@@H](N)c1cncc(NC(=O)c2c(N)ncn(-c3c(Cl)cc(C(F)F)cc3Cl)c2=O)c1 (single isomer, unassigned) [Example 57]
CAT: rule not met
//
COMPOUND: CCc1cc(C)c(-n2cnc(N)c(C(=O)Nc3cncc(C4CCCCCN4)c3)c2=O)c(C)c1 (single isomer, unassigned) [Example 148]
CAT: rule not met
//
COMPOUND: Cc1cc(C(F)(F)F)cc(C)c1-n1cnc(N)c(C(=O)Nc2cncc(C3CCCCCN3)c2)c1=O (single isomer, unassigned) [Example 89]
CAT: rule not met
//
COMPOUND: CCOc1cc(Cl)c(-n2cnc(N)c(C(=O)Nc3cncc(C(N)COC)c3)c2=O)c(Cl)c1 (single isomer, unassigned) [Example 134]
CAT: rule met

Problem: For the compound Cc1cc(C(F)CF)cc(C)c1-n1cnc(N)c(C(=O)Nc2cncc(C3CCCCCN3)c2)c1=O (single isomer, unassigned) [Example 112] , is IC50 under 0.3 µM? rule not met

Problem: For the compound CCNCc1cncc(NC(=O)c2c(N)ncn(-c3c(Cl)cc(C(=O)OCC)cc3Cl)c2=O)c1 [Example 199] , is IC50 under 0.3 µM? rule met

Problem: For the compound COc1cc(Cl)c(-n2cnc(N)c(C(=O)Nc3cnnc(C4CCCCN4)c3)c2=O)c(Cl)c1 (single isomer, unassigned) [Example 172] , is IC50 under 0.3 µM? rule met

Problem: For the compound Cc1cc(C(C)(F)F)cc(C)c1-n1cnc(N)c(C(=O)Nc2cncc([C@H]3CCCCN3)c2)c1=O [Example 186] , is IC50 under 0.3 µM? rule met

====

Could you please report measured IC50 for the items listed next?
TARGET_SYSTEM: human GSK3α (Homo sapiens)
Construct: Full length human GSK3α or GSK3B expressed as N-terminal GST fusion proteins; GST (N); purchased Carna Biosciences (Japan); host or cells: baculovirus host
EXPERIMENTAL_DETAILS: In vitro enzymatic activity assay, GSK3α
Format: biochemical
MEASUREMENT_PARAMETERS: 1.0 mM ATP, 1.0 μM peptide substrate, 120 min, 25° C, read-out: Enzyme GSK3α (IC50)
Counter-ions that a name gives are not always drawn.
One number for each entry, in nM.

Example entries and their recorded answers appear below.
COMPOUND: CCC[C@@H](N)c1cncc(NC(=O)c2c(N)ncn(-c3c(C)cc(OCC)cc3C)c2=O)c1 [Example 94]
UNIT_ABBREV: nM
IC50: 7.6
--
COMPOUND: COc1c(CN)cccc1NC(=O)c1c(N)ncn(-c2c(Cl)cccc2Cl)c1=O [Example 221, trifluoroacetate]
UNIT_ABBREV: nM
IC50: 15.6
--
COMPOUND: COc1cc(C)c(-n2cnc(N)c(C(=O)N[C@@H]3CCC[C@H](CN)C3)c2=O)c(Cl)c1 (single isomer, unassigned) [Example 206]
UNIT_ABBREV: nM
IC50: 9.4

Consider the additional compound presented here.
Recorded IC50 for CCOc1cc(C)c(-n2cnc(N)c(C(=O)Nc3cncc(C(C)N)c3)c2=O)c(C)c1 (single isomer, unassigned) [Example 104] with human GSK3α (Homo sapiens), please? 16.2

====

TARGET_SYSTEM: human GSK3α (Homo sapiens, UniProt P49840)
Construct: Full length human GSK3α or GSK3B expressed as N-terminal GST fusion proteins; GST (N); purchased Carna Biosciences (Japan); host or cells: baculovirus host
Sequence (P49840 whole entry, the tested form may be a part): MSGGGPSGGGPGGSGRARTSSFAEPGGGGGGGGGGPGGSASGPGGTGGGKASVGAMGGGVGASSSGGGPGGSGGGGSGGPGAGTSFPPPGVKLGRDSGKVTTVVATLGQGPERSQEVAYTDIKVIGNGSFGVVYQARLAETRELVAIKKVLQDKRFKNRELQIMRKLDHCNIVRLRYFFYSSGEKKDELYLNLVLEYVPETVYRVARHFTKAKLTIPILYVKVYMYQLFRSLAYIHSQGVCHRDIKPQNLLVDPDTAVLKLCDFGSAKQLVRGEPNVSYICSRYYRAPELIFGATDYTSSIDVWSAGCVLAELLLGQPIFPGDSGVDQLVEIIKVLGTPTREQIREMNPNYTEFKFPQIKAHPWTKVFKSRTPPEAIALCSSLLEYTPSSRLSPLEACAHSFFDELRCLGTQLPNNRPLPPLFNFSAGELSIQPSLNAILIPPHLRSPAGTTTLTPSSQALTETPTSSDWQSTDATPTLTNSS
EXPERIMENTAL_DETAILS: In vitro enzymatic activity assay, GSK3α
Assay type: biochemical
MEASUREMENT_PARAMETERS: 1.0 mM ATP, 1.0 μM peptide substrate, 120 min, 25° C, read-out: Enzyme GSK3α (IC50)
Measured IC50 determines class: lo: < 5 nM; mid: ≥ 5 nM and < 10 nM; hi: ≥ 10 nM

COMPOUND: CCOc1cc(Cl)c(-n2cnc(N)c(C(=O)Nc3cncc([C@@H]4CCCCN4)c3)c2=O)c(Cl)c1
CAT: mid
--
COMPOUND: COc1cc(Cl)c(-n2cnc(N)c(C(=O)Nc3cncc(C4(N)CCC4)c3)c2=O)c(Cl)c1
CAT: lo
--
COMPOUND: COc1cc(Cl)c(-n2cnc(N)c(C(=O)Nc3cncc(C4(N)CCOCC4)c3)c2=O)c(Cl)c1
CAT: hi
--
COMPOUND: CCNCc1cncc(NC(=O)c2c(N)ncn(-c3c(Cl)cccc3Cl)c2=O)c1
CAT: mid
--
COMPOUND: COc1cc(Cl)c(-n2cnc(N)c(C(=O)Nc3cncc([C@@H](C)N)c3)c2=O)c(Cl)c1 (single isomer, unassigned)
CAT: mid

Attention now shifts to the item below.
Which class is correct for the following compound? CNC(C)c1cncc(NC(=O)c2c(N)ncn(-c3c(Cl)cc(OC)cc3Cl)c2=O)c1 (single isomer, unassigned) [Example 19] lo

====

Could you please report measured pIC50 for the items listed next?
TARGET_SYSTEM: GSK3B (Homo sapiens, UniProt P49841)
Sequence (P49841 whole entry): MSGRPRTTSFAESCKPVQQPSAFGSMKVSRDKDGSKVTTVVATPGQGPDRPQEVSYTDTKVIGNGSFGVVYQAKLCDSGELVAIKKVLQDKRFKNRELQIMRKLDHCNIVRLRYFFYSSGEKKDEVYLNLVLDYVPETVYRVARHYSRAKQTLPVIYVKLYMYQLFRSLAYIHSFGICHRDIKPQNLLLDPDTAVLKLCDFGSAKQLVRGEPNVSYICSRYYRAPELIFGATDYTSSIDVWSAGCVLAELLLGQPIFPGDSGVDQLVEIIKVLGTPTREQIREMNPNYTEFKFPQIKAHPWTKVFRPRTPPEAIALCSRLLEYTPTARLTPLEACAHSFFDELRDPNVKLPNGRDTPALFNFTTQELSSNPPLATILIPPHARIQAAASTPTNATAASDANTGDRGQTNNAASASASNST
EXPERIMENTAL_DETAILS: NanoBRET cellular target engagement assay, Nanoluc-GSK3B in HEK293 cells
Type: cell-based
Design: expressed in transfected cells
MEASUREMENT_PARAMETERS: NanoBRET GSK3β IC50, HEK293 cells, tracer K-8, 2 hours, 37° C
Answers are plain numbers, as −log10 of the molar value.

Example entries and their recorded answers appear below.
COMPOUND: Cc1cccc(Cl)c1-n1cnc(N)c(C(=O)Nc2cccc([C@@H]3CCCN3)c2F)c1=O (single isomer, unassigned) [Example 217]
pIC50: 6.37
//
COMPOUND: COC[C@@H](N)c1cccc(NC(=O)c2c(N)ncn(-c3c(Cl)cccc3C(F)F)c2=O)c1 (atropisomer, axis not shown) [Example 7]
pIC50: 6.32

Consider the additional compound presented here.
# query: pIC50 of entry CC1CCC(c2cccc(NC(=O)c3c(N)ncn(-c4c(Cl)cccc4Cl)c3=O)c2)N1 (single isomer, unassigned) [Example 180] 6.49

====

TARGET_SYSTEM: human GSK3α (Homo sapiens)
Construct: Full length human GSK3α or GSK3B expressed as N-terminal GST fusion proteins; GST (N); purchased Carna Biosciences (Japan); host or cells: baculovirus host
EXPERIMENTAL_DETAILS: In vitro enzymatic activity assay, GSK3α
Assay type: biochemical
MEASUREMENT_PARAMETERS: 1.0 mM ATP, 1.0 μM peptide substrate, 120 min, 25° C, read-out: Enzyme GSK3α (IC50)
pIC50: −log10 of the molar value. Structures can show the parent of a compound that is named as a salt.
Param threshold (8) applies to pIC50; output yes when value >= threshold, no when value < threshold.

Consider the worked cases shown below.
COMPOUND: CNC(COC)c1cncc(NC(=O)c2c(N)ncn(-c3c(Cl)cc(C(F)(F)F)cc3Cl)c2=O)c1 (single isomer, unassigned) [Example 122]
CAT: yes
--
COMPOUND: COc1cc(Cl)c(-n2cnc(N)c(C(=O)Nc3cncc(C4COCCN4)c3)c2=O)c(Cl)c1 (single isomer, unassigned) [Example 212]
CAT: yes
--
COMPOUND: CCC[C@@H](N)c1cncc(NC(=O)c2c(N)ncn(-c3c(C)cc(C(F)F)cc3C)c2=O)c1 [Example 106]
CAT: yes
--
COMPOUND: Cc1cc(C(F)(F)F)cc(C)c1-n1cnc(N)c(C(=O)Nc2cncc([C@H]3CCCCN3)c2)c1=S [Example 162, trifluoroacetate]
CAT: yes
--
COMPOUND: Cc1cc(C(C)(F)F)cc(C)c1-n1cnc(N)c(C(=O)Nc2cncc([C@H]3CCCCN3)c2)c1=O [Example 186]
CAT: yes

Given the entry CCOc1cc(Cl)c(-n2cnc(N)c(C(=O)Nc3cncc(CNCCO)c3)c2=O)c(Cl)c1 [Example 26] , answer whether its pIC50 meets or surpasses 8. yes

Given the entry COCc1cc(C)c(-n2cnc(N)c(C(=O)Nc3cncc(C4CCC(C)N4)c3)c2=O)c(C)c1 (single isomer, unassigned) [Example 101] , answer whether its pIC50 meets or surpasses 8. no

Given the entry COc1cc(Cl)c(-n2cnc(N)c(C(=O)Nc3cncc([C@@H]4CCN4)c3)c2=O)c(Cl)c1 (single isomer, unassigned) [Example 213] , answer whether its pIC50 meets or surpasses 8. no

Given the entry CCNCc1cncc(NC(=O)c2c(N)ncn(-c3c(Cl)cc(C(=O)OC)cc3Cl)c2=O)c1 [Example 198] , answer whether its pIC50 meets or surpasses 8. yes

Given the entry CCOc1cc(Cl)c(-n2cnc(N)c(C(=O)Nc3cncc(C(N)CC)c3)c2=O)c(Cl)c1 (single isomer, unassigned) [Example 136] , answer whether its pIC50 meets or surpasses 8. yes

Given the entry Cc1cc(C(F)CF)cc(C)c1-n1cnc(N)c(C(=O)Nc2cncc([C@H]3CCCCN3)c2)c1=O (single isomer, unassigned) [Example 111] , answer whether its pIC50 meets or surpasses 8. yes

Given the entry CNCc1cncc(NC(=O)c2c(N)ncn(-c3c(Cl)cc(C(F)CF)cc3Cl)c2=O)c1 (single isomer, unassigned) [Example 117] , answer whether its pIC50 meets or surpasses 8. yes
